System: MDA-MB-435 melanoma
Assay: NCI-60 one-dose screen, 48 h
Conditions: 10 µM unless noted
Compounds without any hit were thinned out: in the full panel of roughly 83,000, 20% have a hit. Active and inactive are the calls of the source. The calls were made as follows: active = growth percent below 10; inactive = the rest.
Labels: yes (active), no (inactive)

{"columns": ["COMPOUND", "ASSIGNED_LABEL"],
 "data": [
  ["CC1=CC2c3oc(-c4ccccc4)c(C(=O)c4ccccc4)c3CNC2C=C1 (centres undefined)", "no"],
  ["C#Cc1cccc(Nc2ncnc3cc4c(cc23)OCCOCCOCCO4)c1", "no"],
  ["CN1CCN(c2ccc(C(=O)Nc3n[nH]c4ccc(Cc5cc(F)cc(F)c5)cc34)c(NC3CCOCC3)c2)CC1", "yes"],
  ["Cc1cnc(NC(=O)Nc2cc(Br)c(C)cc2OC[C@@H]2CNCCO2)cn1", "yes"]
]}
